Target: UniProtKB P09104
Sequence (P09104 whole entry): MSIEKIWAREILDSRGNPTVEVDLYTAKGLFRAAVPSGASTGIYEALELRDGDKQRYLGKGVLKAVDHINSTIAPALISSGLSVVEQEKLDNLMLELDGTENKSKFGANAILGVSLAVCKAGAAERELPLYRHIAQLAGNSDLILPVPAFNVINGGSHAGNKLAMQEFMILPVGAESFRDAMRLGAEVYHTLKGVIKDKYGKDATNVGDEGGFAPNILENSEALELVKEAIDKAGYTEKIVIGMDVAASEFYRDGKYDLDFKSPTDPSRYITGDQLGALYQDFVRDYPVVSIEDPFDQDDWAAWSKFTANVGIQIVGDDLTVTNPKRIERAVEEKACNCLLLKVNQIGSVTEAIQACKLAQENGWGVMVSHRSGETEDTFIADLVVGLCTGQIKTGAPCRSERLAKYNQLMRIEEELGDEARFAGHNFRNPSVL
Experiment: Human ENO2 coupled enzyme inhibition assay
Assay type: biochemical
Experimental: ENO was assayed in triplicate using a coupled reaction to measure enzyme activity. Briefly, enzyme (50 nM) in assay buffer (100 mM HEPES, pH 8.0, 3.3 mM MgSO4) was loaded in black 96-well plates with or without inhibitors. […] The rate of reduction in fluorescence (excitation: 360 nm; emission: 460 nm), a measure of NAD production, was then scored on a Biotek Synergy H1 microplate reader every 20 seconds for 4 minutes. […]
# reported pIC50; entries follow
Remember, pIC50 is on a log scale: it is -log10 of the molar concentration.

O=C1C(P(=O)(O)O)CC(O)N1O (stereo not shown) [SF2312, reference compound] ... 6.20
O=C1C(P(=O)(O)O)CCN1O (stereo not shown) ... 7.00
O=C1C(P(=O)(O)O)CCCN1O (stereo not shown) ... 6.44

Please find the next compound below.
Consider the compound O=C1C(P(=O)(O)O)CCCCN1O (stereo not shown) . State its measured pIC50.
5.24

* * *

Target: N. fowleri ENO (NfENO) (Naegleria fowleri)
Sequence (A0A6A5BXC3 entry or part of it): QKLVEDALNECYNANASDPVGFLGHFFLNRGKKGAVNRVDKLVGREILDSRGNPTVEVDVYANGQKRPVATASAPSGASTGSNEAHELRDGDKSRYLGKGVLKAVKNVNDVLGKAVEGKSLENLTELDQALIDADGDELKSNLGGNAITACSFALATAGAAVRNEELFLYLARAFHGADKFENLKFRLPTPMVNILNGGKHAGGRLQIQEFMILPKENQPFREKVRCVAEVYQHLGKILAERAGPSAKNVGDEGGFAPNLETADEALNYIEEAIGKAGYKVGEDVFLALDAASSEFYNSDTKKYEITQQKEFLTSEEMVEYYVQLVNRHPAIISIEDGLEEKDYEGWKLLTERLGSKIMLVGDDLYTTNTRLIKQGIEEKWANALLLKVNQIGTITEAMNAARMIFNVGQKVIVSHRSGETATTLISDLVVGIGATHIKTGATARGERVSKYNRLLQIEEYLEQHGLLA
Assay: NfENO coupled enzyme activity/inhibition assay (PK/LDH, NADH fluorescence)
Type: biochemical
# reported IC50; entries follow
Your answer should be a plain number; it is taken to be in nM.

O=C1C(P(=O)(O)O)CCN1O (centres unmarked) ... 1200

Consider the compound O=C1C(P(=O)(O)O)CC(O)N1O (centres unmarked) [SF2312, reference compound] . State its measured IC50.
310

Consider the compound O=C1C(P(=O)(O)O)CCCN1O (centres unmarked) . State its measured IC50.
140

Consider the compound O=C1C(P(=O)(O)O)CCCCN1O (centres unmarked) . State its measured IC50.
4700

* * *

Assay: HEK-293 cytotoxicity, CellTiter Blue, 48 hr
Format: cell-based
Conditions: human, HEK-293 cells (ATCC CRL-1573); HEK-293, 48 hr; no superscript in Fig 1; read-out: Human cell line CC50
recordedEndpoint: CC50 at 48 h

CC(C)OC(=O)[C@H](C)NP(=O)(OCOC(=O)C(C)(C)C)C1CCCN(O)C1=O (some centres unmarked) [CDP25] ... > 5 µM

Please find the next compound below.
Consider the compound O=C1C(P(=O)(O)O)CCN1O (centres unmarked) [Deoxy-SF2312] . State its measured CC50 at 48 h.
> 200 µM
